- Tgt: Polyunsaturated fatty acid 5-lipoxygenase (Homo sapiens)
- Sequence (whole entry): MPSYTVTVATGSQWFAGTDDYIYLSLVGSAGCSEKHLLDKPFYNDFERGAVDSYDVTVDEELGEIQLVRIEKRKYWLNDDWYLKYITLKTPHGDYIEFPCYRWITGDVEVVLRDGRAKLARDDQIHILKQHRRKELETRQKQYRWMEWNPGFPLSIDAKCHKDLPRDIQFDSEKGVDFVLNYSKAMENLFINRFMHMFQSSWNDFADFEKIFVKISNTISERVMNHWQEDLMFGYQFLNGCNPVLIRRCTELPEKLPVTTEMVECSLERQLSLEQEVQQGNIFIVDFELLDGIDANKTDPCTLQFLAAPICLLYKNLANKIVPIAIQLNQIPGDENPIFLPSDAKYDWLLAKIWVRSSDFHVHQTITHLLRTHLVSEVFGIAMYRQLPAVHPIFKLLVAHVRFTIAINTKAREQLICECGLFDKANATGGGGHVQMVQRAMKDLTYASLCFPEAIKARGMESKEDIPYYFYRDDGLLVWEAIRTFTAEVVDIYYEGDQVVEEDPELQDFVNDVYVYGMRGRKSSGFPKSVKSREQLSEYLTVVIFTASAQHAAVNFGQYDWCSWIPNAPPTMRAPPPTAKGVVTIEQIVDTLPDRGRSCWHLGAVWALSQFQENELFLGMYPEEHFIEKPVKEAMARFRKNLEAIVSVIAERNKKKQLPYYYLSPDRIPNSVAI
- Assay notes: Inhibition of recombinant human 5-Lipoxygenase expressed in Escherichia coli lysate assessed as residual activity at 10 uM after 10 mins by HPLC analysis
Known Activity of a selection of compounds
Readout type: Activity (%)

compound=Cc1ccc(-c2cc(CCC(=O)N3CCN(Cc4ccc(C(C)(C)C)cc4)CC3)nn2-c2ccc3ccccc3n2)cc1 observed_measurement=51.5
compound="O=C(CCc1cc(-c2ccc(F)cc2)n(-c2ccc(Cl)nn2)n1)N1CCN(C(=O)C2CCCO2)CC1 (configuration not stated)" observed_measurement=90.8
compound=CCS(=O)(=O)N1CCN(C(=O)CCc2cc(-c3ccc(C)cc3)n(-c3ccc(Cl)nn3)n2)CC1 observed_measurement=93.6
compound=NC(=O)C1CCN(C(=O)CCc2cc(-c3ccc(C(F)(F)F)cc3)n(-c3ccc(Cl)nn3)n2)CC1 observed_measurement=103
compound=CCOC(=O)C1CCN(C(=O)CCc2cc(-c3ccc(C)cc3)n(-c3ccc4ccccc4n3)n2)CC1 observed_measurement=69.9
compound=CC(C)(C)c1ccc(CN2CCN(C(=O)CCc3cc(-c4ccc(F)cc4)n(-c4ccccc4)n3)CC2)cc1 observed_measurement=78.5
compound=O=C(CCc1cc(-c2ccc(F)cc2)n(-c2ccc(Cl)nn2)n1)Oc1ccc(-n2ccnc2)cc1 observed_measurement=71.7
compound=CC(C)(C)c1ccc(CN2CCN(C(=O)CCc3cc(-c4ccc(C(F)(F)F)cc4)n(-c4ccc(Cl)nn4)n3)CC2)cc1 observed_measurement=88.9
compound=CC(C)(C)c1ccc(CN2CCN(C(=O)CCc3cc(-c4ccc(C(F)(F)F)cc4)n(-c4ccc(Cl)cc4)n3)CC2)cc1 observed_measurement=138
compound=CCOC(=O)C1CCN(C(=O)CCc2cc(-c3ccc(C(F)(F)F)cc3)n(-c3ccc(Cl)nn3)n2)CC1 observed_measurement=72.6
compound=O=C(CCc1cc(-c2ccc(C(F)(F)F)cc2)n(-c2ccc(Cl)nn2)n1)Oc1ccc(C2CCCC2)cc1 observed_measurement=92
compound=Cc1ccc(-c2cc(CCC(=O)N3CCN(Cc4ccc(C(C)(C)C)cc4)CC3)nn2-c2ccc(Cl)nn2)cc1 observed_measurement=107
compound=CC(C)(C)c1ccc(CN2CCN(C(=O)CCc3cc(-c4ccc(C(F)(F)F)cc4)n(-c4ccc5ccccc5n4)n3)CC2)cc1 observed_measurement=87.3
compound=Cc1ccc(-c2cc(CCC(=O)Oc3ccc(C(C)C)cc3)nn2-c2ccc3ccccc3n2)cc1 observed_measurement=79.6
compound=CCCCCCCOc1ccc(OC(=O)CCc2cc(-c3ccc(F)cc3)n(-c3ccc(Cl)nn3)n2)cc1 observed_measurement=86.5
compound=O=C(CCc1cc(-c2ccc(C(F)(F)F)cc2)n(-c2ccc(Cl)nn2)n1)N1CCN(C(=O)c2ccco2)CC1 observed_measurement=126
compound=Cc1ccc(-c2cc(CCC(=O)Oc3ccc(OC(F)(F)F)cc3)nn2-c2ccc(Cl)nn2)cc1 observed_measurement=116
